Assay: in vivo
Details: male, C57BL/6J, mouse, 30 mg/kg
measured.metric: concentration at 1 h (ng/mL)
// note: answer is a bare numeric in ng/mL

Request: # return recorded concentration at 1 h for entry CO[C@@H]1[C@H](OC(=O)NC(=O)CCl)CC[C@]2(CO2)[C@H]1[C@@]1(C)O[C@@H]1CC=C(C)C [TNP-470, O-(chloracetyl-carbamoyl) fumagillol]
Response: 0.9

---

Assay: in vivo
Settings: male, C57BL/6J, mouse, 30 mg/kg
measured.metric: concentration at 2 h (ng/mL)
Write the value in ng/mL as a bare number.

Request: Give the reported concentration at 2 h for this compound. `CO[C@@H]1[C@H](OC(=O)NC(=O)CCl)CC[C@]2(CO2)[C@H]1[C@@]1(C)O[C@@H]1CC=C(C)C`
Response: 1.7
